Test: Quantum yield and molar absorption coefficient (Table 1)
Assay type: physicochemical
measured-property: ε · ϕ (molar absorption coefficient x quantum yield)

As a guide, the following entries are already answered.
Problem: Form field: reported ε · ϕ (molar absorption coefficient x quantum yield) of CC(C)N(c1ccc2c(c1)C(c1ccccc1)N(C)c1cc(N(C(C)C)C(C)C)ccc1-2)C(C)C (stereo not shown) [Di-isopropyl form]
Solution: 118.8

Problem: Form field: reported ε · ϕ (molar absorption coefficient x quantum yield) of C[n+]1c(-c2ccccc2)c2cc(N)ccc2c2ccc(N)cc21 [Methidium, reference compound]
Solution: 97.34

Problem: Form field: reported ε · ϕ (molar absorption coefficient x quantum yield) of CN1c2cc(NC3CCC3)ccc2-c2ccc(NC3CCC3)cc2C1c1ccccc1 (stereo not shown) [Cyclobutyl form]
Solution: 47.04

// moving on: another record for ε · ϕ (molar absorption coefficient x quantum yield)
Problem: Form field: reported ε · ϕ (molar absorption coefficient x quantum yield) of CC(C)Nc1ccc2c(c1)C(c1ccccc1)N(C)c1cc(NC(C)C)ccc1-2 (stereo not shown) [Isopropyl form]
Solution: 568.8

* * *

Tested on: bovine thymus DNA
Assay: DNA intercalation analysis by shift of absorption wavelength (bathochromic effect)
Assay type: binding
Conditions: DNA 30 μg/mL versus 0 μg/mL
measured-property: Absorption wavelength difference

As a guide, the following entries are already answered.
Problem: Form field: reported Absorption wavelength difference of CC(C)N(c1ccc2c(c1)C(c1ccccc1)N(C)c1cc(N(C(C)C)C(C)C)ccc1-2)C(C)C (stereo not shown) [Di-isopropyl form]
Solution: 4 nm

Problem: Form field: reported Absorption wavelength difference of CC(C)Nc1ccc2c(c1)C(c1ccccc1)N(C)c1cc(NC(C)C)ccc1-2 (stereo not shown) [Isopropyl form]
Solution: 8 nm

Problem: Form field: reported Absorption wavelength difference of CN1c2cc(NC3CCC3)ccc2-c2ccc(NC3CCC3)cc2C1c1ccccc1 (stereo not shown) [Cyclobutyl form]
Solution: 18 nm

Next:
Problem: Form field: reported Absorption wavelength difference of C[n+]1c(-c2ccccc2)c2cc(N)ccc2c2ccc(N)cc21 [Methidium, reference compound]
Solution: 40 nm

* * *

Assay: Quantum yield and molar absorption coefficient (Table 1)
Type: physicochemical
Field: ϕ: quantum yield. Provide a value for each of the compounds that follow.

// for each compound in input: emit ϕ: quantum yield
1. CC(C)N(c1ccc2c(c1)C(c1ccccc1)N(C)c1cc(N(C(C)C)C(C)C)ccc1-2)C(C)C (stereo not shown) [Di-isopropyl form]
2. CN1c2cc(NC3CCC3)ccc2-c2ccc(NC3CCC3)cc2C1c1ccccc1 (stereo not shown) [Cyclobutyl form]
3. CC(C)Nc1ccc2c(c1)C(c1ccccc1)N(C)c1cc(NC(C)C)ccc1-2 (stereo not shown) [Isopropyl form]
4. C[n+]1c(-c2ccccc2)c2cc(N)ccc2c2ccc(N)cc21 [Methidium, reference compound]

Solution:
8.48 10^−3
3.62 10^−3
40.6 10^−3
2.68 10^−3

* * *

Tested on: bovine thymus DNA
Assay: DNA intercalation analysis by shift of absorption wavelength (bathochromic effect)
Format: binding
Conditions: compound 10 μg/mL in 0.1 M Tris-HCl; peak top wavelength
Field: DNA0: Absorption wavelength when DNA concentration was 0 μg/mL. Provide a value for each of the compounds that follow.
One number for each entry, in nm.

As a guide, the following entries are already answered.
Problem: Form field: reported DNA0: Absorption wavelength when DNA concentration was 0 μg/mL of C[n+]1c(-c2ccccc2)c2cc(N)ccc2c2ccc(N)cc21 [Methidium, reference compound]
Solution: 481

Problem: Form field: reported DNA0: Absorption wavelength when DNA concentration was 0 μg/mL of CC(C)Nc1ccc2c(c1)C(c1ccccc1)N(C)c1cc(NC(C)C)ccc1-2 (stereo not shown) [Isopropyl form]
Solution: 517

Problem: Form field: reported DNA0: Absorption wavelength when DNA concentration was 0 μg/mL of CN1c2cc(NC3CCC3)ccc2-c2ccc(NC3CCC3)cc2C1c1ccccc1 (stereo not shown) [Cyclobutyl form]
Solution: 557

Next:
Problem: Form field: reported DNA0: Absorption wavelength when DNA concentration was 0 μg/mL of CC(C)N(c1ccc2c(c1)C(c1ccccc1)N(C)c1cc(N(C(C)C)C(C)C)ccc1-2)C(C)C (stereo not shown) [Di-isopropyl form]
Solution: 559
